# ASSAYED TARGET: Rap guanine nucleotide exchange factor 4 (Homo sapiens) (UniProt Q8WZA2)
# Sequence (Q8WZA2 whole entry, looked up): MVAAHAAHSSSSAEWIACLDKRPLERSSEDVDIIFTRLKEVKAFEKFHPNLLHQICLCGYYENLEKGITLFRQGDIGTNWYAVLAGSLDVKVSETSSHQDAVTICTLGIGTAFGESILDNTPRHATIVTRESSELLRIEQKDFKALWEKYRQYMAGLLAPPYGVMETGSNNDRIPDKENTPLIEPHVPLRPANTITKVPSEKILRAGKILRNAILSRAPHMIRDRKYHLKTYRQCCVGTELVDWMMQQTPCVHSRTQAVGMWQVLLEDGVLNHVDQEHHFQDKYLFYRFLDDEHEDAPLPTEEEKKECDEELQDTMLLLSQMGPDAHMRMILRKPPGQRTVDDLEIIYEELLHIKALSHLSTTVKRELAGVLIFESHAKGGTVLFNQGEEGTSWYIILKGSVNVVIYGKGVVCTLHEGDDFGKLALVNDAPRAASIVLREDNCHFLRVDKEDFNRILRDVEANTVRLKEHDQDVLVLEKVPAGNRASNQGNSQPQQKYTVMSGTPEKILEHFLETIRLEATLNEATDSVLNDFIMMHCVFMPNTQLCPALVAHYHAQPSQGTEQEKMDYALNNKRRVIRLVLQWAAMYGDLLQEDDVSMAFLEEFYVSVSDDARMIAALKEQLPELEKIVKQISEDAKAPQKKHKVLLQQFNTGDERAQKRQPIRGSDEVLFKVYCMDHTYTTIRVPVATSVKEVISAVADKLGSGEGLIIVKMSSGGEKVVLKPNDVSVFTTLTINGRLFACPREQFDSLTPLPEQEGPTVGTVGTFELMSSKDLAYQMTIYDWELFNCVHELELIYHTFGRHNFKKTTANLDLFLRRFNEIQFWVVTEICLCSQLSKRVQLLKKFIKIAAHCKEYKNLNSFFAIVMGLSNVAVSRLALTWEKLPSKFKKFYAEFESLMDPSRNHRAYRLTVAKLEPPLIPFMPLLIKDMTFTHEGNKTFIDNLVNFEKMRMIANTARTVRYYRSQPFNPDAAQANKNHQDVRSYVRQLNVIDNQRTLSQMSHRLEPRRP
# PROTOCOL NOTES: Confirmatory qHTS for agonist of cAMP-regulated guanine nucleotide exchange factor 4 (EPAC2) (AID 1645884);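 further: nucleotide exchange releases bodipy-GDP from Rap1 and this lowers its fluorescence; nearly all actives have a fitted effect of over 65% in size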
# ASSAY CONTEXT: EPAC2 GEF activity, Rap1B-BODIPY-GDP fluorescence; series mostly up to 154 µM
Inconclusive results are not listed. Activity calls are given as the source filed them. The call rests on the fitted dose curve; in most records, active means well fitted activation curve with a large enough effect; inconclusive means small, poorly fitted or top-dose-only effect; inactive means no such curve, though single readings can be large or run the other way.
ATTRIBUTE MEASURED: activation

1) Cc1[nH]c2ccccc2c1C(c1ccccc1)c1cccs1 (stereo unspecified)
inactive
2) COc1nc(C)cc(C)c1S(=O)(=O)c1ccccc1C
inactive
3) COc1ccc(C(C)=NNc2ccc([N+](=O)[O-])cc2S(=O)(=O)Nc2ccccc2C(=O)O)c(OC)c1
inactive
4) CCC(=O)N1N=C(c2cccs2)CC1c1ccc(OC)cc1 (stereo unspecified)
inactive
5) COc1ccc(N2CCN(C(c3ccccc3F)c3sc4nc(-c5ccco5)nn4c3O)CC2)cc1 (stereo unspecified)
inactive

Alright, here's another compound for you.
The compound CC(CCc1ccccc1)NC(=O)C1CCN(C(=O)c2sccc2-n2cccc2)CC1 (stereo unspecified) , tested on Rap guanine nucleotide exchange factor 4 (Homo sapiens) (UniProt Q8WZA2), showed activation of inactive
